Molecular target: T1, 6His–Evasin-4 (Rhipicephalus sanguineus, UniProt P0C8E9 24-127)
T1 sequence: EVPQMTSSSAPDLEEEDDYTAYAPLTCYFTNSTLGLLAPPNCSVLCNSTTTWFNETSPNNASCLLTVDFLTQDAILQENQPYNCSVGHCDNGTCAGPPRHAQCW
Assay: SPR
For each record, write down the corresponding Kd.
One number for each entry, in nM.

For the 4 binders below, give their Kd values.
1. CCL26 (ligand) TRGSDISKTCCFQYSHKPLPWTWVRSYEFTSNSCSQRAVIFTTKRGKKVCTHPRKKWVQKYISLLKTPKQL
2. CCL23 (ligand) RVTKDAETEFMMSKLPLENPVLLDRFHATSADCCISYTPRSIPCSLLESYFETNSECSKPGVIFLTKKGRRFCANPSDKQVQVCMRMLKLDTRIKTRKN
3. CCL22 (ligand) GPYGANMEDSVCCRDYVRYRLPLRVVKHFYWTSDSCPRPGVVLLTFRDKEICADPRVPWVKMILNKLSQ
4. CCL8 (ligand) QPDSVSIPITCCFNVINRKIPIQRLESYTRITNIQCPKEAVIFKTKRGKEVCADPKERWVRDSMKHLDQIFQNLKP

-- reply
0.88
4.43
0.43
0.25

For the 6 binders below, give their Kd values.
1. CCL14 (ligand) TKTESSSRGPYHPSECCFTYTTYKIPRQRIMDYYETNSQCSKPGIVFITKRGHSVCTNPSDKWVQDYIKDMKEN
2. CCL15 (ligand) QFTNDAETELMMSKLPLENPVVLNSFHFAADCCTSYISQSIPCSLMKSYFETSSECSKPGVIFLTKKGRQVCAKPSGPGVQDCMKKLKPYSI
3. CCL17 (ligand) ARGTNVGRECCLEYFKGAIPLRKLKTWYQTSEDCSRDAIVFVTVQGRAICSDPNNKRVKNAVKYLQSLERS
4. CCL1 (ligand) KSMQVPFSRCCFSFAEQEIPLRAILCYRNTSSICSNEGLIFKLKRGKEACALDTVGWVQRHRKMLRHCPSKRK
5. CCL16 (ligand) QPKVPEWVNTPSTCCLKYYEKVLPRRLVVGYRKALNCHLPAIIFVTKRNREVCTNPNDDWVQEYIKDPNLPLLPTRNLSTVKIITAKNGQPQLLNSQ
6. CCL24 (ligand) VVIPSPCCMFFVSKRIPENRVVSYQLSSRSTCLKAGVIFTTKKGQQFCGDPKQEWVQRYMKNLDAKQKKASPRARAVAVKGPVQRYPGNQTTC

-- reply
0.14
2.31
0.61
0.2
0.26
0.41

Sourced from paper PMC4240464
